All figures here come from the nanobody polyreactivity screen of Harvey et al. (2022).

Experiment: yeast display, Sf9 membrane polyspecificity reagent, FACS + sequencing; frameworks hold sequencing errors
quantity: polyreactivity (PSR sort gate)

Some sequences with known polyreactivity (PSR sort gate) results, for comparison:
[
  {
    "polymerSequence": "QVQLVESGGGLVQAGGSLRLSCAASGRTFRTYAMGWYRQAPGKERELVASISVGGGSTYYADSVKGRFTISRDNAKNTVYLQMNSLKPEDTAVYYCAVRSYSPRSRGMGYWGQGTQVTVSS",
    "experimentalValue": "high polyreactivity"
  },
  {
    "polymerSequence": "QVQLVESGGGLVQAGGSLRLSCAASGTIFYINAMGWYRQAPGKERELVAAIRSGGSTNYADSVKGRFTISRDNAKNTVYLQMNSLKPEDTAVYYCNARSRSYVPYYYWGQGTQVTVSS",
    "experimentalValue": "high polyreactivity"
  },
  {
    "polymerSequence": "QVQLVESGGGLVQAGGSLRLSCAASGSIFTGNAMGWYRQAPGKERELVAAITNGGITNYADSVKGRFTISRDNAKNTVYLQMNSLKPEDTAVYYCAADYVDFYSFRRFDYWGQGTQVTVSS",
    "experimentalValue": "low polyreactivity"
  },
  {
    "polymerSequence": "QVQLVESGGGLVQAGGSLRLSCAASGSIFGYYTIGWYRQAPGKEREFVAAITQSGGSTYYADSVKGRFTISRDNAKNTVYLQMNSLKPEDTAVYYCAKQGYLKWGGTGDYWGQGTQVTVSS",
    "experimentalValue": "high polyreactivity"
  },
  {
    "polymerSequence": "QVQLGESGGGLVQAGGSLRLSCAASGFTFDFYAMGWYRPAPGKEWELVAAINWSGSSTYYADSVKGRFTISRDNAKNTDYLQMNSLKPEDTAVYYCAAQVYYTLFPDVYTMYYWGQGTQETVSS",
    "experimentalValue": "high polyreactivity"
  }
]

Prompt: Respond only with polyreactivity (PSR sort gate) recorded for `QVQLVESGVGLVQAGGSLRLSCASSGRILTYYAMGWYRQAPGKERELVASISSNGGTYYADSVKGRFTISRDNAKNTVYLQMNSLKPEDTAVYYCNAKRVARYQYGASYNYWGQGTQVTVSS`
Response: high polyreactivity

Prompt: Respond only with polyreactivity (PSR sort gate) recorded for `QVQLLESGGGLVQAGGSLRLSCAASGSIFGLYAMGWYRQAPGKERELVAALTWSSGNTYYADSVKGRFTISRDNAKNTVYLQMNSLKPEDTAVYYCSARVYRYGAMDYWGQGTQVTVSS`
Response: high polyreactivity

Prompt: Respond only with polyreactivity (PSR sort gate) recorded for `QVQLVESGGGLVQAGGSLSLSCAASGPTFGEYVMGWYRQAPGKERELVASISRRGGSTYYADSVKGRFTISRDNAKNTVYLQMNSLKPEDTAVYYCAKYRTQWSKNLYPYGFDYWGQGTQVTVSS`
Response: low polyreactivity

Prompt: Respond only with polyreactivity (PSR sort gate) recorded for `QVQLVESGGGLVQAGGSLRLSCAASGITFRGYAMGWYRQAPGKERELVADITWNGGSTYYADSVKGRFTISRDNAKNTVYLQMNSLKPEDPAVYYCAADGYRIYWSSYRFYYWGQGTQVTVSS`
Response: high polyreactivity

----------
Experiment: yeast display, Sf9 membrane polyspecificity reagent, FACS + sequencing; frameworks hold sequencing errors
quantity: polyreactivity (PSR sort gate)

Some sequences with known polyreactivity (PSR sort gate) results, for comparison:
[
  {
    "polymerSequence": "QVQLVESGGGLVQAGGSLRLSCAASGSTFQYYAMGGYRQAPGKERELVAGITWRDGNTYYADTVKGRFTISRDNANNTVYLQMNSLKPEDTAVYYCAARRYFVIYYPYDYWGQGTQVTVSS",
    "experimentalValue": "low polyreactivity"
  },
  {
    "polymerSequence": "QVQLVESGGGLVQAGGSLRLSCAASGSIFGSNAMGWYRQAPGKERELVAAISSGSTYYADSVKGRFTISRDNAKNTVYLQMNSLKPEDTAVYYCNARSLLYEFDYWGQGTQVTVSS",
    "experimentalValue": "low polyreactivity"
  },
  {
    "polymerSequence": "QVQLVESCGGLVQAGGSLRLSCAASGYTFGSNAMGWYRQAPGKERELVAAISTNGGRTNYADSVKGRFTISRDNAKNTVYLQMNSLKPEDTAVYYCNTRLRVRYYLSGFDYWGQGTQVTVSS",
    "experimentalValue": "high polyreactivity"
  },
  {
    "polymerSequence": "QVQLVESGGGLVQAGGSLRLSCAASGRTLASNAMGWYRQAPGKERELVAAINRGGSTYYADSVKGRFTISRDNAKNTVYLQMNSLKPEDTAVYSCAVDRYRYPFDYWGQGTQVTVSS",
    "experimentalValue": "low polyreactivity"
  },
  {
    "polymerSequence": "QVQLVESGGGLVQAGGSLRLSCADSGSTFPFYAMGWYSHSPGKERELVAAITSGGSTYADYVKGRFTISRDNAKNTVYLQMNSLNPEDTAVYYCAGSWPRWWRFGYWGQGTQVTVSS",
    "experimentalValue": "low polyreactivity"
  }
]

Prompt: Respond only with polyreactivity (PSR sort gate) recorded for `QVQLVESGGGLVQAGGSLRLSCAASGRTFSYNAMGWYRQAPGTERELVAAISGGGSTDYADSVKGRFTISRDNAKNTVYLQMNSLKPEDTAVYYCAAGWYVYTFFEFYVFDGDYWGQGTQVTVSS`
Response: low polyreactivity

Prompt: Respond only with polyreactivity (PSR sort gate) recorded for `QVQLVESGGGLVQAGGSLRLSCAASGNIFYNGMGWYRQAPGKERELVAAIRGSGGRTYADSVKGRFTISRDNAKNTVYLQMNSLKPEDTAVYYCATRRWYAYGVYYWGQGTQVTVSS`
Response: high polyreactivity

Prompt: Respond only with polyreactivity (PSR sort gate) recorded for `QGQLVESGGGLVQAGGSLRLSCAASGGTFRAYVMGWSRQAPGKERELVADISRSGTRTYYADSVKGRFTISRDNAKNTVYLQMNSLKPEDTAVYYCAAAAKSWLFEYWGQGTQVTVSS`
Response: high polyreactivity

Prompt: Respond only with polyreactivity (PSR sort gate) recorded for `QVQLVESGGGLVQAGGSLRLSCAASGSIFYHYAMGWYRQAPGKEREFVAAITRRGTSTYYADSVKGRFTISRDNAKNTVYLQMNSLKPEDTAVYYCAARYGPNMDYCGQGTQVTVSS`
Response: high polyreactivity
